TARGET_OR_TEST_SYSTEM: recombinant human IL-13 (human, UniProt P35225 35-146)
Sequence (P35225 35-146 limits assumed): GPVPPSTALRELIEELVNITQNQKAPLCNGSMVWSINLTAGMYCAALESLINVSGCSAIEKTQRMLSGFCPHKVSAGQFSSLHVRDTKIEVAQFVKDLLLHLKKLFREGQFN
MEASUREMENT_PROTOCOL: cell-based or functional assay
OUTCOME_MEASURE: HEK-IL-13 [nM] (IC50, STAT6 reporter) (nM)
Kindly answer with a numeric value in nM, unit omitted.

Before answering, review these 4 worked examples.
BDG38.096 (antibody, V domains shown, IgG1) VH: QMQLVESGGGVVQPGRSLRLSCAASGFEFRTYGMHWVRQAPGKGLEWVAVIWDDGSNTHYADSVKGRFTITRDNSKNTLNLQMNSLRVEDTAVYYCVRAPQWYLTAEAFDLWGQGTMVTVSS VL: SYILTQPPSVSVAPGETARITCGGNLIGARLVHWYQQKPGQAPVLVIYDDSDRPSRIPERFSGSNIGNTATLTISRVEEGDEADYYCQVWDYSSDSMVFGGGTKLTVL | 0.15
BDG38.107 (antibody, V domains shown, IgG1) VH: QMQLVESGGGVVQPGRSLTLSCAASGFEFRTYGMHWVRQAPGKGLEWVGVIWYDGSNTHYADSVKGRFTITRDNSKNTLNLQMNSLRAEDTAVYYCVRAPQWYLTAEAFDLWGQGTMVTVSS VL: SYILTQPPSVSVAPGQTATITCGGNLIGARLVHWYQQKPGQAPVLVIYDDSDRPSRIPERFSGSNIGNTATLTIERVEEGDEADYYCQVWDYSSDSYVFGGGTKLTVL | 0.0943
BDG38.117 (antibody, V domains shown, IgG1) VH: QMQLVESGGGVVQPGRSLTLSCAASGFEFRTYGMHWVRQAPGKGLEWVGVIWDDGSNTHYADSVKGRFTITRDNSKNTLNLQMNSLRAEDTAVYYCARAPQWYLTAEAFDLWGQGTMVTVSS VL: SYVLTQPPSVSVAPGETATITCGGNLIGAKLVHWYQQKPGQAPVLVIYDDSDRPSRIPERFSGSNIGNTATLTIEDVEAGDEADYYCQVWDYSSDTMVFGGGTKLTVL | 0.0801
BDG38.100 (antibody, V domains shown) VH: QMQLVESGGGVVQPGRSLRLSCAASGFEFRTYGMHWVRQAPGKGLEWVGVIWYDGSNTHYADSVKGRFTITRDNSKNTLNLQMNSLRVEDTAVYYCVRAPQWYLTAEAFDLWGQGTMVTVSS VL: SYVLTQPPSVSVAPGETARITCGGNLIGARLVHWYQQKPGQAPVLVIYDDSDRPSRIPERFSGSNIGNTATLTIERVEEGDEADYYCQVWDYYSNSYVFGGGTKLTVL | 0.0801

QUERY: Can you look up the measured HEK-IL-13 [nM] (IC50, STAT6 reporter) of BDG38.137 (antibody, V domains shown, IgG1) VH: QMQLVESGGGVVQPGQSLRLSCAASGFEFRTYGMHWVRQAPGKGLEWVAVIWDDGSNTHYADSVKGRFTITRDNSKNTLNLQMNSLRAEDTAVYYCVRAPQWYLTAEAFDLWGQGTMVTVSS VL: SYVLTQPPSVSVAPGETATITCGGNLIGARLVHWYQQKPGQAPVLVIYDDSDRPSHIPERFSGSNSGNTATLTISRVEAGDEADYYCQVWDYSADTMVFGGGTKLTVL for me?
RESULT: 0.195
